Consider the following compounds and their measured Dmax readings.
systemName: BRG1 (Homo sapiens, UniProt P51532)
Construct: either BRM primary antibody (Cell signaling Cat #11966) or BRG primary antibody (Abcam, ab 110641); endogenous in cells; host or cells: SW1573
Sequence (P51532 whole entry): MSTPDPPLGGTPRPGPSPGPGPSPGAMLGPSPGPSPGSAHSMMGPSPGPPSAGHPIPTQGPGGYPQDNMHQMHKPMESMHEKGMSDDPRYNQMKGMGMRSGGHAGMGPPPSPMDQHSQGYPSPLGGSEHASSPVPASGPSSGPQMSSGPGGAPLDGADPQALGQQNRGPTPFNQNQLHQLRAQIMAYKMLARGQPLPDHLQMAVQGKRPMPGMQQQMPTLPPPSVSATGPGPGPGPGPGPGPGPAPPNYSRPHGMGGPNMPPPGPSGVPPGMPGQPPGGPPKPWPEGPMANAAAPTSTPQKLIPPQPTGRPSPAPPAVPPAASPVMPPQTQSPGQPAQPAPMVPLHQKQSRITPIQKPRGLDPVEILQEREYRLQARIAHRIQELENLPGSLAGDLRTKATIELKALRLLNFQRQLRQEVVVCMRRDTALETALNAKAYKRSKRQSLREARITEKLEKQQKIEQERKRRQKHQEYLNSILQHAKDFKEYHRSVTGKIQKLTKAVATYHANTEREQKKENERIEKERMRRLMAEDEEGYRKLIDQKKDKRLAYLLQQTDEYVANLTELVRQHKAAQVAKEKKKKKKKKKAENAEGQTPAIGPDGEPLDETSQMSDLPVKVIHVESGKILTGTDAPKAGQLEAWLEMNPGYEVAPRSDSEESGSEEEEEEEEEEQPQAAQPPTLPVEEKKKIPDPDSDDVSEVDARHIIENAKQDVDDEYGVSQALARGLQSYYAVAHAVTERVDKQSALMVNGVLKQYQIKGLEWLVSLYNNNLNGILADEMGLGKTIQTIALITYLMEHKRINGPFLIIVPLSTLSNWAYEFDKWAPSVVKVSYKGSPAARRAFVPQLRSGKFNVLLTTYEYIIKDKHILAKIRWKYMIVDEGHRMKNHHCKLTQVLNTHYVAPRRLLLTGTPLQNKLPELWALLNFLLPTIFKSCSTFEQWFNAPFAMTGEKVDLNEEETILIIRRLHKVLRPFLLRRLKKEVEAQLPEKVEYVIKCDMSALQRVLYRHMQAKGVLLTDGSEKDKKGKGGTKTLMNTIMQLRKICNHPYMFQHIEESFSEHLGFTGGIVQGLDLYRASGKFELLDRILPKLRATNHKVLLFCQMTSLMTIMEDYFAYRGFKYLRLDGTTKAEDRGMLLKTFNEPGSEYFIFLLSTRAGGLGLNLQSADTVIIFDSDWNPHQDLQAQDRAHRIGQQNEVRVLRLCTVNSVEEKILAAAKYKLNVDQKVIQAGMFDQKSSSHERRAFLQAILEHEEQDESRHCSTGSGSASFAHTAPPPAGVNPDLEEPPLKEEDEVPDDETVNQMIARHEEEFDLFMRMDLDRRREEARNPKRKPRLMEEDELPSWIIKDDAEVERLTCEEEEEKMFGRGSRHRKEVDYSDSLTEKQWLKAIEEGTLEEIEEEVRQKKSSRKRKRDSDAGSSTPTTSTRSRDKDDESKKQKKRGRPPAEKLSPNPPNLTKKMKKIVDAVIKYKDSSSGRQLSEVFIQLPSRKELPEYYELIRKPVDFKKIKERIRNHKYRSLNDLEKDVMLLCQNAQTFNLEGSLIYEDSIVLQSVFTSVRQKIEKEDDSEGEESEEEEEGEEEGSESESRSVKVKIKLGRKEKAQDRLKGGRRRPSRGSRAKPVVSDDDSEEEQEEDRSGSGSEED
experiment: Immunofluorescence assay for BRG1 degradation in SW1573 cells
Type: cell-based
reportedConditions: SW1573, 20 h, 20 hours incubation, normalized to a known degrader control, read-out: BRG1 IF Degradation Sinf (%)
Method: Example B-2: Immunofluorescence Assay for BRM and BRG1 Degraders SW1573 cells were seeded at 3000 cells/well in 384 well plates. The next day, compounds were added using an Echo dispenser. […] Harmony software (Perking Elmer) was used to quantify the mean nuclear signaling intensity of BRM or BRG signaling per cell in each well. Dose responses were determined from the concentration dependent response of mean nuclear signal intensity with data normalized to a known degrader control. […]

These recorded examples may help you get a feel for the data.
INSERT INTO assay_data (compound, result) VALUES
  ('N#CC1CCN(CC#Cc2cc(N3C4CCC3CN(c3cc(-c5ccccc5O)nnc3N)C4)ccn2)CC1 [Compound 139]', '0 to 30%'),
  ('Nc1nnc(-c2ccccc2O)cc1N1CC2CCC(C1)N2c1ccnc(C#CCN2C[C@H]3CCCC[C@H]3C2)c1 [Compound 60]', '30 to 70%'),
  ('CCOC1CN(CC#Cc2cc(N3C4CCC3CN(c3cc(-c5ccccc5O)nnc3N)C4)ccn2)C1 [Compound 224]', '30 to 70%');

Assay BRG1 (Homo sapiens, UniProt P51532), sample Nc1nnc(-c2ccccc2O)cc1N1CC2CCC(C1)N2c1ccnc(C#CCN2CCCCCC2)c1 [Compound 58] , Dmax read: 30 to 70%

---

systemName: BRG1 (Homo sapiens)
Construct: either BRM primary antibody (Cell signaling Cat #11966) or BRG primary antibody (Abcam, ab 110641); endogenous in cells; host or cells: SW1573
experiment: Immunofluorescence assay for BRG1 degradation in SW1573 cells
Format: cell-based
reportedConditions: 20 hours incubation, immunofluorescence mean nuclear signal, read-out: BRG1 IF Degradation IC50
propertyName: DC50

Below, 8 compounds whose answers are already recorded.
INSERT INTO measurements (compound, result) VALUES
  ('Nc1nnc(-c2ccccc2O)cc1N1CC2CCC(C1)N2c1ccnc(C#CCN2CCCCC(CO)C2)c1 (stereo not drawn)', '< 10 nM'),
  ('Nc1nnc(-c2ccccc2O)cc1N1CC2CCC(C1)N2c1ccnc(C#CCN2CCOC(F)(F)C2)c1', '10 to 100 nM'),
  ('Nc1nnc(-c2ccccc2O)cc1N1CC2CCC(C1)N2c1ccnc(C#CCN2CCN3CCCC3C2)c1 (stereo not drawn)', '< 10 nM'),
  ('Nc1nnc(-c2ccccc2O)cc1N1CC2CCC(C1)N2c1ccnc(C#CCN2CC3COCC3C2)c1 (stereo not drawn)', '< 10 nM'),
  ('Nc1nnc(-c2ccccc2O)cc1N1CC2CCC(C1)N2c1ccnc(C#CCN2CCCC(CO)CC2)c1 (stereo not drawn)', '10 to 100 nM'),
  ('CN1C[C@@H]2CN(CC#Cc3cc(N4C5CCC4CN(c4cc(-c6ccccc6O)nnc4N)C5)ccn3)C[C@@H]2C1', '> 100 nM'),
  ('Nc1nnc(-c2ccccc2O)cc1N1CC2CCC(C1)N2c1ccnc(C#CCN2CCN(C3CC3)CC2)c1', '> 100 nM'),
  ('Nc1nnc(-c2ccccc2O)cc1N1CC2CCC(C1)N2c1ccnc(C#CCN2CCn3cccc3C2)c1', '10 to 100 nM');

CC1CCCN(CC#Cc2cc(N3C4CCC3CN(c3cc(-c5ccccc5O)nnc3N)C4)ccn2)CC1C (stereo not drawn) yielded DC50 of < 10 nM

Item: Nc1nnc(-c2ccccc2O)cc1N1CC2CCC(C1)N2c1ccnc(C#CCN2CC3CC3(O)C2)c1 (stereo not drawn) | DC50: 10 to 100 nM

Sample CC1(C)CN(CC#Cc2cc(N3C4CCC3CN(c3cc(-c5ccccc5O)nnc3N)C4)ccn2)C1 ; DC50 observed: < 10 nM
